Origin of the recorded values: PubChem BioAssay (Tox21)

Experiment: qHTS assay to identify small molecule antagonists of the sonic hedgehog signaling (Shh) pathway - cell viability counter screen (AID 1259367); further: nearly all actives have a fitted effect of over 55% in size
Conditions: NIH/3T3 Gli1-Luc viability, CellTiter-Fluor, 24 h; series mostly up to 92.4 µM
Inconclusive results are not listed. Activity calls are given as the source filed them. The call rests on the fitted dose curve; in most records, active means well fitted cell-killing curve with a large enough effect in the repeat runs; inconclusive means weak or mixed curves, or effect the other way; inactive means no such curve, though single readings can be large or run the other way.
Parameter call: string, one of active, inactive

Please review the following examples before continuing.
# COMPOUND, CLASS_NAME
measured = [
    ("CCCCC1=NC2(CCCC2)C(=O)N1Cc1ccc(-c2ccccc2-c2nn[nH]n2)cc1", "active"),
    ("CC(C)=CCC/C(C)=C/CC/C(C)=C/CO", "inactive"),
    ("CCC(Cl)CCC(Cl)C(Cl)CC(Cl)C(Cl)C(Cl)CCl (stereo unspecified)", "inactive"),
    ("CCCCCCCCO[C@@H]1O[C@H](CO)[C@@H](O)[C@H](O)[C@H]1O", "inactive"),
    ("CN(C)c1ccc(CCO)cc1", "inactive"),
    ("CNCCCCOc1ccccc1Cc1ccccc1", "inactive"),
    ("CCOC(=O)COC(=O)c1cc(Oc2ccc(C(F)(F)F)cc2Cl)ccc1[N+](=O)[O-]", "inactive"),
    ("CCC(C)O (stereo unspecified)", "inactive"),
    ("CN(C)CCOC(c1ccccc1)c1ccc(Br)cc1 (stereo unspecified)", "inactive"),
    ("COCCCN1CCC(NC(=O)c2cc(Cl)c(N)c3c2OCC3)CC1", "inactive"),
]

In: Per the records of this test, what outcome belongs to Cc1ccc(C(C)OC(=O)C2(C)CCC(C(=O)O)C2(C)C)cc1 (stereo unspecified) ?
Out: inactive

In: Per the records of this test, what outcome belongs to c1ccc(CNCCNCc2ccccc2)cc1 ?
Out: inactive

In: Per the records of this test, what outcome belongs to CN(Cc1ccc(C(C)(C)C)cc1)Cc1cccc2ccccc12 ?
Out: inactive

====

Assay: qHTS assay to identify small molecule that activate the aryl hydrocarbon receptor (AhR) signaling pathway - cell viability counter screen (AID 743086); further: nearly all actives have a fitted effect of over 45% in size
Conditions: HepG2-AhR-luc viability, CellTiter-Fluor, 24 h; series mostly up to 70.3 µM
Description: U.S. Tox21 Program National Center for Advancing Translational Sciences [NCATS] NIH Chemical Genomics Center [NCGC] U.S. Environmental Protection Agency [EPA] National Institutes of Environmental Health Sciences [NIEHS] National Toxicology Program [NTP] U.S. Food and Drug Administration [FDA] Tox21 Assay overview: The Aryl hydrocarbon Receptor (AhR), a member of the family of basic helix-loop-helix transcription factors, is crucial to adaptive responses to environmental changes. […]
Inconclusive results are not listed. Calls of active or inactive are those of the source. Calls follow the shape of the dose curve; as a rule, active = well fitted cell-killing curve with a large enough effect in the repeat runs; inconclusive = weak or mixed curves, or effect the other way; inactive = flat fitted curve, though single readings scatter.
Parameter call: string, one of active, inactive

Please review the following examples before continuing.
# COMPOUND, CLASS_NAME
measured = [
    ("CCO[Si](CCCCl)(OCC)OCC", "inactive"),
    ("CO[C@@H]1[C@H](OC(=O)/C=C/C=C/C=C/C=C/C(=O)O)CC[C@]2(CO2)[C@H]1[C@@]1(C)O[C@@H]1CC=C(C)C", "inactive"),
    ("Nc1ccc(N)c2c1C(=O)c1ccccc1C2=O", "active"),
    ("CC(C)CC(=O)C1C(=O)c2ccccc2C1=O", "inactive"),
    ("CC1CCC(=O)C1=O (configuration not stated)", "inactive"),
    ("CCOC(=O)C1=C[C@]2(CC)CCCN3CCc4c(n1c1ccccc41)[C@@H]32", "inactive"),
]

Please look at the following compound next.
In: Per the records of this test, what outcome belongs to CCN(CC)CCOC(=O)C(Cc1cccc2ccccc12)CC1CCCO1 (configuration not stated) ?
Out: inactive
